# System: C. albicans opt4Δ
# Type: cell-based, Candida albicans
# conditionContext: RPMI-1640 medium, MOPS pH 7.0, CLSI conditions, turbidity 531 nm, at least 80% decrease
Where a SMILES comes first, the peptide text is derived from it. [ ]: non-standard residue; d: D form. The star is where a group is joined. Fumaryl(OMe) = COC(=O)/C=C/C(=O)*; Dap = NC[C@H](N)C(=O)O

- compound: "COC(=O)/C=C/C(=O)NC[C@H](NC(=O)[C@H](CCSC)NC(=O)[C@@H](NC(=O)[C@@H]1CCCN1C(=O)[C@H](CC(C)C)NC(=O)[C@@H](N)CCCCN)C(C)C)C(=O)O [Peptide F6, Lys-Leu-Pro-Val-Met-FMDP] (H-KLPVM[Dap](Fumaryl(OMe))-OH; N-terminus and C-terminus assumed)"
  MIC: ">128 mg/L"

----------
Item-by-item account of MIC
# Tested on: C. albicans opt4Δ
# Type: cell-based, Candida albicans
# conditionContext: RPMI-1640 medium, MOPS pH 7.0, CLSI conditions, turbidity 531 nm, at least 80% decrease
Where a SMILES comes first, the peptide text is derived from it. [ ]: non-standard residue; d: D form. The star is where a group is joined. Fumaryl(OMe) = COC(=O)/C=C/C(=O)*; Dap = NC[C@H](N)C(=O)O

- compound: "COC(=O)/C=C/C(=O)NC[C@H](N)C(=O)N[C@@H](CCCCN)C(=O)N[C@@H](CCCCN)C(=O)N[C@H](C(=O)N[C@H](C(=O)N[C@@H](Cc1ccccc1)C(=O)N[C@@H](Cc1c[nH]c2ccccc12)C(=O)N[C@H](C(=O)N[C@@H](CCCCN)C(=O)N[C@@H](Cc1ccccc1)C(=O)N[C@@H](CCCCN)C(=O)O)C(C)C)C(C)C)C(C)C [Peptide F11] (H-[Dap](Fumaryl(OMe))KKVVFWVKFK-OH; N-terminus assumed)"
  MIC: ">128 µg/mL"
- compound: "CC(C)[C@H](NC(=O)[C@H](Cc1c[nH]c2ccccc12)NC(=O)[C@H](Cc1ccccc1)NC(=O)[C@@H](NC(=O)[C@@H](NC(=O)[C@H](CCCCN)NC(=O)[C@@H](N)CCCCN)C(C)C)C(C)C)C(=O)N[C@@H](CCCCN)C(=O)N[C@@H](Cc1ccccc1)C(=O)N[C@@H](CCCCN)C(=O)O [Peptide P10, Lys-Lys-Val-Val-Phe-Trp-Val-Lys-Phe-Lys] (H-KKVVFWVKFK-OH)"
  MIC: "64 µg/mL"
- compound: "COC(=O)/C=C/C(=O)NC[C@H](N)C(=O)N[C@@H](CCCNC(=N)N)C(=O)N[C@@H](CCCCN)C(=O)N[C@@H](CCCCN)C(=O)N[C@@H](Cc1c[nH]c2ccccc12)C(=O)N[C@@H](Cc1ccccc1)C(=O)N[C@@H](Cc1c[nH]c2ccccc12)C(=O)O [Peptide F7, FMDP-Arg-Lys-Lys-Trp-Phe-Trp] (H-[Dap](Fumaryl(OMe))RKKWFW-OH; N-terminus and C-terminus assumed)"
  MIC: ">128 µg/mL"

----------
Item-by-item account of Uptake rate ± SD
# Test system: C. albicans ptr2Δ ptr22Δ
# test: Initial peptide uptake rate
# Assay type: cell-based, Candida albicans
# conditionContext: 50 mM potassium phosphate buffer (pH 5.0 or 6.5) + 1% glucose, 30°C, 100 μM peptide, TNBS A420, slope 0- to 10-min
Where a SMILES comes first, the peptide text is derived from it. [ ]: non-standard residue; d: D form. Nva = CCC[C@H](N)C(=O)O

- compound: "CC(C)[C@H](NC(=O)[C@H](Cc1c[nH]c2ccccc12)NC(=O)[C@H](Cc1ccccc1)NC(=O)[C@@H](NC(=O)[C@@H](NC(=O)[C@H](CCCCN)NC(=O)[C@@H](N)CCCCN)C(C)C)C(C)C)C(=O)N[C@@H](CCCCN)C(=O)N[C@@H](Cc1ccccc1)C(=O)N[C@@H](CCCCN)C(=O)O [Peptide P10, Lys-Lys-Val-Val-Phe-Trp-Val-Lys-Phe-Lys] (H-KKVVFWVKFK-OH)"
  Uptake rate ± SD: "<0.1 nmol min^-1 (mg dry weight)^-1"
- compound: "CCC[C@H](N)C(=O)N[C@@H](Cc1ccccc1)C(=O)N[C@@H](CCSC)C(=O)N[C@@H](CC(=O)O)C(=O)N1CCC[C@H]1C(=O)O [Peptide F2, Nva-FMDP] (H-[Nva]FMDP-OH)"
  Uptake rate ± SD: "<0.1 nmol min^-1 (mg dry weight)^-1"
